experiment: Study 1: pharmacokinetics of ritonavir alone and with tipranavir in healthy volunteers; assay type: in vivo, human; details: human, plasma, po, 500 mg
metric: half-life

*Q* Requested field: half-life. Item: `CC(C)c1nc(CN(C)C(=O)N[C@H](C(=O)N[C@@H](Cc2ccccc2)C[C@H](O)[C@H](Cc2ccccc2)NC(=O)OCc2cncs2)C(C)C)cs1`
*A* 2.9 h

###

test: Tipranavir drug-drug interaction potential (Table 1); settings: with tipranavir
metric: Potential for Clinically Significant Interaction

- smiles code: "CC(C)CN(C[C@@H](O)[C@H](Cc1ccccc1)NC(=O)O[C@H]1CCOC1)S(=O)(=O)c1ccc(N)cc1"
  result: "High (and unfavorable)"
- smiles code: "O=c1[nH]cnc2c1ncn2[C@H]1CC[C@@H](CO)O1"
  result: "Low"
- smiles code: "Cc1cn([C@H]2C[C@H](N=[N+]=[N-])[C@@H](CO)O2)c(=O)[nH]c1=O"
  result: "Low"
- smiles code: "CC(C)(C)NC(=O)[C@@H]1C[C@@H]2CCCC[C@@H]2CN1C[C@@H](O)[C@H](Cc1ccccc1)NC(=O)[C@H](CC(N)=O)NC(=O)c1ccc2ccccc2n1"
  result: "High (and unfavorable)"
